Reported Activity values follow for various molecules
- test.system: 5-hydroxytryptamine receptor 6 (Homo sapiens, UniProt P50406)
- Sequence (P50406 whole entry): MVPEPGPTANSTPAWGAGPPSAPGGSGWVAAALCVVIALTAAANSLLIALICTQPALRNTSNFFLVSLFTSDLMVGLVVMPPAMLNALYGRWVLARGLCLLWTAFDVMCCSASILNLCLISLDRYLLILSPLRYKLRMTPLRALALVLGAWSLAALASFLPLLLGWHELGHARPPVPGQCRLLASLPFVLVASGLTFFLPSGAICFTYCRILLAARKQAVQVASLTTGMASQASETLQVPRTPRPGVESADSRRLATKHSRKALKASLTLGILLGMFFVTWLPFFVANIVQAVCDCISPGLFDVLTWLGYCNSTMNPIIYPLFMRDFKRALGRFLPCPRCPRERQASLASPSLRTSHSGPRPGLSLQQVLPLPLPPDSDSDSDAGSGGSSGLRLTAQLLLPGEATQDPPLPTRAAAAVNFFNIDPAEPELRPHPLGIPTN
- method.summary: Binding affinity to human 5HT6 receptor expressed in COS7 cells assessed as emission fluorescence intensity
- Format: cell-based
- experimental.setup: COS-7

| cpd.smiles | test.system | result.operator | Activity [a.u.] |
| --- | --- | --- | --- |
| COc1ccc(NS(=O)(=O)c2cccc3c(N(C)C)cccc23)cc1N1CCN(CCCCNS(=O)(=O)c2cccc3c(N(C)C)cccc23)CC1 | 5-hydroxytryptamine receptor 6 (Homo sapiens, UniProt P50406) | > | 1000 |
| COc1ccc(NS(=O)(=O)c2cccc3c(N(C)C)cccc23)cc1N1CCNCC1 | 5-hydroxytryptamine receptor 6 (Homo sapiens, UniProt P50406) | = | 52 |
| Cc1c(S(=O)(=O)Nc2ccc(OCCCCCCCCNS(=O)(=O)c3cccc4c(N(C)C)cccc34)c(N3CCNCC3)c2)sc2ccc(Cl)cc12 | 5-hydroxytryptamine receptor 6 (Homo sapiens, UniProt P50406) | = | 700 |
| COc1ccc(N(S(=O)(=O)c2sc3ccc(Cl)cc3c2C)S(=O)(=O)c2cccc3c(N(C)C)cccc23)cc1N1CCNCC1 | 5-hydroxytryptamine receptor 6 (Homo sapiens, UniProt P50406) | = | 19 |
| COc1ccc(NS(=O)(=O)c2cccc3c(N(C)C)cccc23)cc1N1CCN(CCCCCCNS(=O)(=O)c2cccc3c(N(C)C)cccc23)CC1 | 5-hydroxytryptamine receptor 6 (Homo sapiens, UniProt P50406) | = | 287 |
| COc1ccc(NS(=O)(=O)c2sc3ccc(Cl)cc3c2C)cc1N1CCN(CCCCCCCCNS(=O)(=O)c2cccc3c(N(C)C)cccc23)CC1 | 5-hydroxytryptamine receptor 6 (Homo sapiens, UniProt P50406) | > | 1000 |
| COc1ccc(N(CCCCCCCCNS(=O)(=O)c2cccc3c(N(C)C)cccc23)S(=O)(=O)c2sc3ccc(Cl)cc3c2C)cc1N1CCNCC1 | 5-hydroxytryptamine receptor 6 (Homo sapiens, UniProt P50406) | > | 1000 |
| COc1ccc(N(S(=O)(=O)c2cccc3c(N(C)C)cccc23)S(=O)(=O)c2cccc3c(N(C)C)cccc23)cc1N1CCNCC1 | 5-hydroxytryptamine receptor 6 (Homo sapiens, UniProt P50406) | = | 35 |
